Below, each entry is listed alongside its reported Kd.
System Tested: ABL1(Q252H) (Homo sapiens, UniProt P00519, Q252H)
Assay Summary: Phage-display competition binding assay (Kd), ABL1(Q252H)

// query What value of Kd has been recorded for this entry: COc1cc2nc(Cl)nc(Nc3ccc(NC(=O)Nc4cc(C(C)(C)C)on4)cc3)c2cc1OC
// result 1 to 10 µM

Now consider the entry below.
// query Would you kindly share the measured Kd for COc1cc2ncnc(Nc3ccc(NC(=O)Nc4cc(C(C)(C)C)on4)cc3)c2cc1OC ?
// result 0.1 to 1 µM

###

Reported values of Kd for individual entries
System Tested: ABL1(T3151) (Homo sapiens, UniProt P00519, T315I)
Assay Summary: Phage-display competition binding assay (Kd), ABL1(T3151)

// below: answered compounds
// query Would you kindly share the measured Kd for COc1cc2ncnc(Nc3ccc(NC(=O)Nc4cc(C(C)(C)C)on4)cc3)c2cc1OC ?
// result < 100 nM

// query Moving on to COC(=O)c1cccc(Sc2ncc(NC(=O)Nc3cc(C(C)(C)C)on3)s2)c1
// result 100 to 1000 nM

More entries:
// query What value of measured Kd is listed for CC(C)(C)c1cc(NC(=O)Nc2ccc(OCCc3ccccn3)cc2)no1 ?
// result 1000 to 10000 nM

// query Next record, please: COc1cc2nc(Cl)nc(Nc3ccc(NC(=O)Nc4cc(C(C)(C)C)on4)cc3)c2cc1OC
// result 1000 to 10000 nM

// query Field entry: CC(C)(C)c1cc(NC(=O)Nc2ccc(NC(=O)c3c4c(nc5ccccc35)CCCC4)cc2)no1
// result > 10000 nM

Sourced from patent US20100173917A1
